System name: VACV B5 protein (vaccinia virus, UniProt Q01227 20-275)
Protocol description: lysate ELISA
Value type: EC50 (µg/mL)
Output spec: scalar in µg/mL, unitless text.

query: EC50 for MPXV-25 (antibody, V domains shown, human IgG1, anti-B5) V domain 1: QVQLVESGGGVVQPGRSLKISCAASGFTFSDSGLHWVRQAPGKGLECVAFIWYDGSTKYYADSVKGRFTISRDNSRNTLYLQMKSLRAEDTAVYYCARELGYCSGGTCYSMGAFDIWGQGTLVTVSQ V domain 2: QSVLTQPASVSGSPGQSITISCTGTSSDVGSYNLVSWYQQHPGKAPKLMIYEVSKRPSGVSNRFSGSKSDNTASLTISGLQAEDEADYYCCSYVGSSTSVFGGGTQVTVL ?
result: 0.066

query: EC50 for MPXV-43 (antibody, V domains shown, human IgG1, anti-B5) VH: QVQLVQSGAEVKKPGASVKVSCKASGYTFTKYTIHWVRQAPGQRLEWVGGIYAGYGNTRYSQKFQGRVTITRDTSASTAYMELSSLRSEDTAVYFCARDFEDFDSWTGYYSWLHWGQGTLVTVSS VL: EIVLTQSPGTLSLSPGERATLSCRASQSVSSTYLAWYQQKPGQAPRLLIYGASSRATGIPDRFSGSGSGTDFTLTITRLEPEDFAMYFCQQYDSSPSITFGQGTRLEIK ?
result: 0.011

query: EC50 for MPXV-12 (antibody, V domains shown, human IgG3, anti-B5) VH: QVQLQQWGAGLLKPSETLSLTCAVYGGSFTNYYWSWIRQFPGKGLEYIGEIDHSGSANYNPSLKSRVTISLDTSKNQFSLRLSSVTAADTAVYFCARDVYGSGTYYWFDPWGQGTL VL: DIQMTQSPTSLSASVGDRVTITCRASQRISSHLNWYQQKPGKAPKLLIYVASSLQSGVPSRFSGSGSGTDYTLTISSLQPEDFATYFCQQSYTTPYTFGQGTNLQMK ?
result: 5.85
